All figures here come from the supplement of paper PMC9112550.

test system: Escherichia coli TOP10; experiment: shrunken log2 fold change of peptide-encoding DNA abundance (4.5 h post-induction vs induction); higher = less antimicrobial activity (less host growth inhibition); details: time post-induction: 4.5 h; library: site-saturation at positions 5, 18, 19, 20
# shrunken log2 fold change >= 0.05 gives Yes, anything below gives No

| recordSequence | category |
| --- | --- |
| RRIRHRPPRLPRPRPRPVWPPRP | Yes |
| RRIRDRPPRLPRPRPRPSTTPRP | Yes |

API: above_or_equal(metric=shrunken log2 fold change, cutoff=0.05) for item "RRIRFRPPRLPRPRPRPFRMPRP" No

Determine whether measured shrunken log2 fold change meets or exceeds 0.05 for "RRIRVRPPRLPRPRPRPQNGPRP" No

Entry "RRIRERPPRLPRPRPRPPMYPRP" : is its shrunken log2 fold change no less than 0.05? No

Form field: shrunken log2 fold change at least 0.05? Entry: "RRIRRRPPRLPRPRPRPAGNPRP" No

Is the recorded value of shrunken log2 fold change equal to or greater than 0.05 for this sequence? "RRIRERPPRLPRPRPRPVMSPRP" No

Given "RRIRQRPPRLPRPRPRPPSFPRP" , state whether its shrunken log2 fold change is at least 0.05. No

Would you say "RRIRHRPPRLPRPRPRPICTPRP" shows shrunken log2 fold change at minimum 0.05? No

###

tested on: Escherichia coli TOP10; assay: shrunken log2 fold change of peptide-encoding DNA abundance (4.5 h post-induction vs induction); higher = less antimicrobial activity (less host growth inhibition); settings: time post-induction: 4.5 h; library: site-saturation at positions 5, 18, 19, 20
Reported shrunken log2 fold change values for a set of sequences
Answer with the value's number alone.

Answered examples (5):
| recordSequence | shrunken log2 fold change |
| --- | --- |
| RRIRYRPPRLPRPRPRPQRLPRP | -0.131 |
| RRIRIRPPRLPRPRPRPMHWPRP | -0.194 |
| RRIRKRPPRLPRPRPRPQITPRP | -0.0657 |
| RRIRNRPPRLPRPRPRPDVKPRP | -0.412 |
| RRIRHRPPRLPRPRPRPSAPPRP | -0.239 |

Please fill in: shrunken log2 fold change reported for "RRIRHRPPRLPRPRPRPPYNPRP" = -0.642

Noted for "RRIRARPPRLPRPRPRPGCEPRP" : its shrunken log2 fold change reads 1.1

###

tested on: Escherichia coli TOP10; test: shrunken log2 fold change of peptide-encoding DNA abundance (4.5 h post-induction vs induction); higher = less antimicrobial activity (less host growth inhibition); settings: time post-induction: 4.5 h; library: site-saturation at positions 5, 18, 19, 20;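 further: peptides expressed intracellularly from a pBAD plasmid library in pooled LB shake-flask culture, induced with 0.3% L-arabinose, DNA abundance read by NGS, three biological replicates, DESeq2 with apeglm shrinkage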
observable: shrunken log2 fold change
Please give the numeric answer without any surrounding text.

Please review the following examples before continuing.
| recordSequence | shrunken log2 fold change |
| --- | --- |
| RRIRCRPPRLPRPRPRPNNDPRP | -0.643 |
| RRIRGRPPRLPRPRPRPRFNPRP | 0.0824 |
| RRIRGRPPRLPRPRPRPEVFPRP | 1.38 |
| RRIRTRPPRLPRPRPRPHHKPRP | -0.614 |
| RRIRARPPRLPRPRPRPMTPPRP | 0.913 |
| RRIRDRPPRLPRPRPRPILTPRP | -0.0144 |
| RRIRHRPPRLPRPRPRPPGGPRP | 0.443 |

Consider the record given below.
get_value(item= "RRIRGRPPRLPRPRPRPFIPPRP" , readout=shrunken log2 fold change) returns -0.429
